# assayed system: UniProt:Q9Y5S8
# Sequence (Q9Y5S8 whole entry, looked up): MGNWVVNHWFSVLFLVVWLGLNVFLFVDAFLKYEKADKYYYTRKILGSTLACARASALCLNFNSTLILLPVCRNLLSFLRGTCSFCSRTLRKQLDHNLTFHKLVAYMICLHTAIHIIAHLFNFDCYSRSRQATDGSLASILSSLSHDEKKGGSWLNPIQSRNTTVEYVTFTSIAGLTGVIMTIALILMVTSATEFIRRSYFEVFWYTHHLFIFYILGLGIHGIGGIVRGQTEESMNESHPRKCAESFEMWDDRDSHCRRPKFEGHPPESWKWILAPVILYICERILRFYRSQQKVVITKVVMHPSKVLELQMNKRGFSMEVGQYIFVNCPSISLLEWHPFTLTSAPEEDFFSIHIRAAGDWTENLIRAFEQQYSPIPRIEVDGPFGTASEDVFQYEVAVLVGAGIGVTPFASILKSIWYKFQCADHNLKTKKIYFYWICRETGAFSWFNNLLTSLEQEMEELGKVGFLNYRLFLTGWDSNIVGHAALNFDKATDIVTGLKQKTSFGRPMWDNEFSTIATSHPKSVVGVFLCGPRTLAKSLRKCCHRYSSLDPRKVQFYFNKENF
# assay name: reconstituted NOX1 ROS output inhibition – cell-based, HEK/293, percent inhibition, luminescence, orthogonal assay for NOX1 inhibitor project, late-stage follow-up (AID 2545)
# assay context: NOX1-transfected HEK293, luminol ROS chemiluminescence; at 100 µM; hits give high values
value kind: inhibition (%)

The examples below pair each entry with its known result.
                              smiles_record  assayed_system  quantity_unit  assay_value
0     O=C(Oc1ccccc1N1CCCCC1)c1sc2ccccc2c1Cl  UniProt:Q9Y5S8              %         57.6
1         O=c1c(Cl)c2oc3ccccc3nc-2c2ccccc12  UniProt:Q9Y5S8              %           52
2  Cc1nc(C(F)(F)F)c(C(=O)NNc2ncc(C(F)(F)F)cc2Cl)s1  UniProt:Q9Y5S8              %         49.4
3          Nc1nc(NCc2ccccc2OC(F)(F)F)n[nH]1  UniProt:Q9Y5S8              %         26.1
4       S=C(NNc1nccc(-c2cccnc2)n1)Nc1ccccc1  UniProt:Q9Y5S8              %        -62.4
5      Nc1nc(NCc2c(Cl)cccc2Oc2ccccc2)n[nH]1  UniProt:Q9Y5S8              %         2.15

1: COc1cccc(NC(=S)NNc2ccc([N+](=O)[O-])cc2)c1
2: c1ccc2c(c1)Nc1nc3ccccc3nc1N2
Compare the recorded inhibition of 1 and 2 ; state which is larger. Reply with the label of the item you choose.
2
